Reference source for all entries: patent US20110313156A1

# experimental system: His6-PDK1 (aa 52-556) (Homo sapiens)
# Construct: 15 μL His6-PDK1 (aa 52-556) 3.33 ng/well); host or cells: baculovirus-infected insect cells
# Sequence (O15530 52-556): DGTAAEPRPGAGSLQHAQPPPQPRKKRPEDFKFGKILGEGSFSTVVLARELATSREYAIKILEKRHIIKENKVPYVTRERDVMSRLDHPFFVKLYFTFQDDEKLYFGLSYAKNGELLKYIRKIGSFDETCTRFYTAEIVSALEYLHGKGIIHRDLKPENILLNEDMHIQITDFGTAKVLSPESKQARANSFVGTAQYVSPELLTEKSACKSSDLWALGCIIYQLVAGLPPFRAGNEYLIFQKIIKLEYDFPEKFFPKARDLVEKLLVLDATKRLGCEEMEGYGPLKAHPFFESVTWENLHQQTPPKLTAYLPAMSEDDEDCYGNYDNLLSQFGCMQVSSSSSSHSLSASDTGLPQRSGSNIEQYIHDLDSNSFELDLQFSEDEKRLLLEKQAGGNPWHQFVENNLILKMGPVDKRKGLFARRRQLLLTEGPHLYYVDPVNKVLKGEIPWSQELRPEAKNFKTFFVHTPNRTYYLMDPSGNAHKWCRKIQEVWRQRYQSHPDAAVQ
# measurement description: PDK1 kinase assay III (with Tween 20)
# Type: biochemical
# condition parameters: compound at 10 μM; PDK1 kinase assay III (values without asterisk); read-out: % CTL (residual activity of the enzyme relative to DMSO control)
Provide the reported remaining activity at 10 µM of each item.

# get_value(readout='remaining activity at 10 µM', item= Cc1c(C(=O)NC/C=C/c2ccc3nc(Nc4ccc(CN(C)C)cc4)ncc3c2)c(=O)n(Cc2ccc(F)c(F)c2)n1C [IV-21] )
11.2%

Now give it for CNc1ncc2cc(/C=C/CNC(=O)c3c(C)n(C)n(Cc4ccc(F)c(F)c4)c3=O)ccc2n1 too.
16.1%

Now give it for Cc1c(C(=O)NC/C=C/c2ccc3c(c2)NC(=O)/C3=C\c2nc[nH]c2CN)c(=O)n(Cc2ccc(F)c(F)c2)n1C [I-50] too.
16.6%

Now give it for CNC(=O)c1ccc(Nc2ncc3cc(/C=C/CNC(=O)c4cncn(Cc5ccc(F)c(F)c5)c4=O)ccc3n2)cc1Cl too.
14.1%

Now give it for CN1CCC(N(C)c2ccc(Nc3ncc4cc(C#CCNC(=O)c5nccn(Cc6ccc(F)c(F)c6)c5=O)ccc4n3)cc2)CC1 [III-34] too.
10.7%

Now give it for O=C1Nc2cc(/C=C/CNC(=O)c3cccc(Nc4ccc(F)c(F)c4)n3)ccc2/C1=C/c1cnc[nH]1 [I-20] too.
42.7%

Now give it for N#Cc1ccc(Nc2ncc3cc(C#CCNC(=O)c4cncn(Cc5ccc(F)c(F)c5)c4=O)ccc3n2)cc1 [III-44] too.
30.4%

Now give it for CCNc1ncc2cc(/C=C/CNC(=O)c3cncn(Cc4ccc(F)c(F)c4)c3=O)ccc2n1 too.
23.5%

Now give it for CN(C)Cc1ccc(Nc2ncc3cc(C#CCNC(=O)c4nccn(Cc5ccc(F)c(F)c5)c4=O)ccc3n2)cc1 [III-17] too.
13.7%

Now give it for Cc1c(C(=O)NCC#Cc2ccc3nc(NC4CCC4)ncc3c2)c(=O)n(Cc2ccc(F)c(F)c2)n1C too.
12.3%

Now give it for COC(=O)c1ccc(Nc2ncc3cc(/C=C/CNC(=O)c4c(C)n(C)n(Cc5ccc(F)c(F)c5)c4=O)ccc3n2)cc1 too.
20.7%

Now give it for CN1CCC(N(C)c2ccc(Nc3ncc4cc(C#CCNC(=O)c5cc(Cl)nn(Cc6ccc(F)c(F)c6)c5=O)ccc4n3)cc2)CC1 [III-41] too.
12.7%

Now give it for Cc1c(C(=O)NCC#Cc2cc(OCCCN)c3nc(Nc4ccc(N5CCOCC5)cc4)ncc3c2)c(=O)n(Cc2ccc(F)c(F)c2)n1C [III-74] too.
13%

Now give it for CN(C)Cc1ccc(Nc2ncc3c(F)c(/C=C/CNC(=O)c4cncn(Cc5ccc(F)c(F)c5)c4=O)ccc3n2)cc1 [IV-33] too.
14.9%

Now give it for CN1CCC(N(C)c2ccc(Nc3ncc4cc(C#CCNC(=O)c5cncn(Cc6ccc(F)c(F)c6)c5=O)ccc4n3)cc2)CC1 [III-30] too.
11.4%

Now give it for Cc1c(C(=O)NCC#Cc2ccc3nc(Nc4ccc(C(=O)NC5CCN(C6CC6)CC5)cc4)ncc3c2)c(=O)n(Cc2ccc(F)c(F)c2)n1C too.
11.6%

Now give it for CNc1ncc2cc(C#CCNC(=O)c3cncn(Cc4ccc(F)c(F)c4)c3=O)ccc2n1 [III-43] too.
20.3%

Now give it for Nc1ncc2cc(C#CCNC(=O)c3cncn(Cc4ccc(F)c(F)c4)c3=O)ccc2n1 [III-42] too.
14.7%

Now give it for Cc1c(C(=O)NCC#Cc2cc(OC3CCNC3)c3nc(Nc4ccc(N5CCOCC5)cc4)ncc3c2)c(=O)n(Cc2ccc(F)c(F)c2)n1C (centres unmarked) [III-76] too.
11.8%

Now give it for O=C(NC/C=C/c1cc(OC2CCNCC2)c2nc(Nc3ccccc3)ncc2c1)c1cncn(Cc2ccc(F)c(F)c2)c1=O [III-19] too.
17.5%

Now give it for Cc1c(C(=O)NC/C=C/c2ccc3nc(Nc4ccc(NC5CCN(C)CC5)c(F)c4)ncc3c2)c(=O)n(Cc2ccc(F)c(F)c2)n1C [IV-55] too.
16.5%

Now give it for CN(C)CCNC(=O)c1ccc(Nc2ncc3cc(C#CCNC(=O)c4cncn(Cc5ccc(F)c(F)c5)c4=O)ccc3n2)cc1 too.
18.5%

Now give it for Cc1c(C(=O)NCC#Cc2ccc3nc(Nc4ccc(CN(C)C)cc4)ncc3c2F)c(=O)n(Cc2ccc(F)c(F)c2)n1C [III-25] too.
11.7%

Now give it for Cc1c(C(=O)NCC#Cc2ccc3nc(Nc4ccc(N(C)C)cc4)ncc3c2)c(=O)n(Cc2ccc(F)c(F)c2)n1C too.
14.3%

Now give it for NCCOc1cc(/C=C/CNC(=O)c2cncn(Cc3ccc(F)c(F)c3)c2=O)cc2cnc(Nc3ccc(N4CCOCC4)cc3)nc12 too.
10.1%

Now give it for CN1CCC(NC(=O)c2ccc(Nc3ncc4cc(/C=C/CNC(=O)c5cncn(Cc6ccc(F)c(F)c6)c5=O)ccc4n3)cc2F)CC1 too.
19.7%

Now give it for CN(C)Cc1ccc(Nc2ncc3cc(/C=C/CNC(=O)c4ccnn(Cc5ccc(F)c(F)c5)c4=O)ccc3n2)cc1 [IV-51] too.
14.5%

Now give it for COCCCN(C)C(=O)c1ccc(Nc2ncc3cc(C#CCNC(=O)c4c(C)n(C)n(Cc5ccc(F)c(F)c5)c4=O)ccc3n2)cc1 too.
16%

Now give it for CN1CCC(N(C)c2ccc(Nc3ncc4cc(/C=C/CNC(=O)c5nccn(Cc6ccc(F)c(F)c6)c5=O)ccc4n3)cc2)CC1 [IV-49] too.
13.5%
